System: ACHN renal
Assay: NCI-60 one-dose screen, 48 h
Settings: 10 µM unless noted
This is part of a sample that, as a whole, favours compounds with a hit. Of some 83,000 tested, about 20% had one in any assay. Active and inactive are the calls of the source. Rule for the calls: active = growth percent below 10; inactive = the rest.
Permitted responses: active, inactive

MOLECULE	TESTED ON	CATEGORY LABEL
O=[N+]([O-])c1cnc(Sc2ccncn2)s1	ACHN renal	active
C=C(C)[C@@H]1C[C@H](O)Cc2cc(F)ccc2N1	ACHN renal	inactive
O=S1(=O)CCC(N(/N=C/c2ccco2)c2ccccc2)C1 (centres undefined)	ACHN renal	inactive

--- query ---
Recorded test outcome, item `COC(=O)c1cccc2c1N(C)c1c(cccc1C(=O)OC)CC2` inactive
